Taken from ChEMBL document CHEMBL1126506.

Target or test system: Thromboxane A2 receptor (Homo sapiens, UniProt P21731)
Sequence (P21731 whole entry): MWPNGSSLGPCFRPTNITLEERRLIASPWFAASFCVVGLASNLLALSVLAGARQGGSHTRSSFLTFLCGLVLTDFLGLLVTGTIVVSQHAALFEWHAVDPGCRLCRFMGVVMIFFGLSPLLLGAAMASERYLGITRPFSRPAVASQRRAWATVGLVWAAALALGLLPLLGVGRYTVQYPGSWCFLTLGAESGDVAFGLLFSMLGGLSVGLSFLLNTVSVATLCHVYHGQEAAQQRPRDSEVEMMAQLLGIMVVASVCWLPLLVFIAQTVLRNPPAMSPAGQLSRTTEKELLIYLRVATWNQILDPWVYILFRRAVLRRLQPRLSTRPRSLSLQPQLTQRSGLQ
Assay name: In vitro inhibition against TXA2/PGH2 receptor using [3H]-SQ 29,548 as radioligand in human platelet membrane preparation
Condition description: read-out: I50
pIC50: −log10 of the molar value.
Measurement type: pIC50

The cases that follow already have their pIC50 on record.
O=C(O)CCc1ccccc1CC1OCOC1c1nc(C(=O)NCCc2ccc(Cl)cc2)co1 (trans isomer; (-))	6.51
O=C(O)CCc1ccccc1CC1OCOC1c1nc(C(=O)NCCc2ccc(Cl)cc2)co1 (trans isomer; (+))	5.51
O=C(O)CCc1ccccc1CC1OCOC1c1nc(C(=O)NCCc2ccc(Cl)cc2)co1 (racemic)	6.89

1. O=C(O)CCc1ccccc1CC1COCOC1c1nc(C(=O)NCCc2ccc(Cl)cc2)co1 (stereo not given)
2. O=C(O)CCc1ccccc1CC1C2CCC(O2)C1c1nc(C(=O)NCCc2ccc(Cl)cc2)co1 (stereo not given)
Data request: // compare: 1 vs 2 , metric pIC50, want the smaller Reply with the label of the item you choose.
Data returned: 1
(1: 6.48, 2: 8.15)
